tested on: 143B; experiment: Cell proliferation (CellTiter-Glo, 72 hour), 143B; assay type: cell-based; details: Homo sapiens, osteosarcoma cell line, read-out: 143B inhibition of proliferation (IC50)
pIC50: −log10 of the molar value.
Reported values of pIC50 for individual entries
quantity-measured: pIC50

>>> result("CN1CC[C@H](c2c(O)cc(O)c3c(=O)cc(-c4ccccc4Cl)oc23)[C@H](O)C1 [Flavopiridol, flavopiridol, reference compound]")
"5.30 to 6.30"
>>> result("CN(C)C/C=C/C(=O)Nc1ccc(C(=O)N[C@H]2CCC[C@@H](Nc3ncc(Cl)c(-c4c[nH]c5ccccc45)n3)C2)cc1")
"< 5.30"
>>> result("CN(C)C/C=C/C(=O)Nc1ccc(C(=O)N[C@H]2CCC[C@H](Nc3ncc(Cl)c(-c4c[nH]c5ccccc45)n3)C2)cc1")
"< 5.30"
>>> result("CC(C)[C@]12O[C@H]1[C@@H]1O[C@]13[C@]1(O[C@H]1C[C@H]1C4=C(CC[C@@]13C)C(=O)OC4)[C@@H]2O [Triptolide, triptolide, reference compound]")
"> 6.30"

###

target: CDK7 (Homo sapiens); construct: purchased Life Technologies (assay service); experiment: Adapta kinase assay (Life Technologies), CDK7; format: biochemical; conditions: Table 1C, co-factors cyclin H and MNAT1, read-out: CDK7 IC50
pIC50: −log10 of the molar value.
quantity-measured: pIC50

>>> result("CN(C)C/C=C/C(=O)Nc1ccc(C(=O)N[C@H]2CCC[C@@H](Nc3ncc(C#N)c(-c4c[nH]c5ccccc45)n3)C2)cc1")
"> 7.00"
>>> result("CN(C)C/C=C/C(=O)Nc1ccc(C(=O)N[C@@H]2C[C@H](F)C[C@H](Nc3ncc(Cl)c(-c4c[nH]c5ccccc45)n3)C2)cc1")
"6.00 to 7.00"
>>> result("O=C(/C=C/CO)Nc1ccc(C(=O)N[C@H]2CCC[C@@H](Nc3ncc(Cl)c(-c4c[nH]c5ccccc45)n3)C2)cc1")
"> 7.00"
>>> result("CN(C)C/C=C/C(=O)Nc1ccc(C(=O)NC23CCCC(Nc4ncc(Cl)c(-c5c[nH]c6ccccc56)n4)(C2)C3)cc1")
"> 7.00"
>>> result("C=CC(=O)Nc1ccc(C(=O)NC2CCCC(Nc3ncc(Cl)c(-c4sc(C)nc4C)n3)C2)cc1 (stereo not drawn)")
"6.00 to 7.00"
>>> result("CN(C)C/C=C/C(=O)Nc1ccc(C(=O)N[C@@H]2CCC[C@@H](Nc3ncc(Cl)c(-c4c[nH]c5ccccc45)n3)C2)cc1")
"> 7.00"

###

molecular target: CDK7 (Homo sapiens, UniProt P50613); construct: purchased Life Technologies (assay service); assay: Adapta kinase assay (Life Technologies), CDK7; type: biochemical; conditions: Table 1C, co-factors cyclin H and MNAT1, read-out: CDK7 IC50
Sequence (P50613 whole entry): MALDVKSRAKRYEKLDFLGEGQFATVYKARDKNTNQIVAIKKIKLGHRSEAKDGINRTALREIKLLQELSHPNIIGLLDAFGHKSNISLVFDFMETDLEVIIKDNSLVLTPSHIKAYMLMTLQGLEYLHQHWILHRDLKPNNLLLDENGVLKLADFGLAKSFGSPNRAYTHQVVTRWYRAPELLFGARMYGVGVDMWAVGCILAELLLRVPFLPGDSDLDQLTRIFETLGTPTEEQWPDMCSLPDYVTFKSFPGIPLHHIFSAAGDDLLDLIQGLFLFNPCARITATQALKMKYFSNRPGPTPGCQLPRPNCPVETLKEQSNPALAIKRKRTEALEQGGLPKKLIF
Sequence (P51946 whole entry partner): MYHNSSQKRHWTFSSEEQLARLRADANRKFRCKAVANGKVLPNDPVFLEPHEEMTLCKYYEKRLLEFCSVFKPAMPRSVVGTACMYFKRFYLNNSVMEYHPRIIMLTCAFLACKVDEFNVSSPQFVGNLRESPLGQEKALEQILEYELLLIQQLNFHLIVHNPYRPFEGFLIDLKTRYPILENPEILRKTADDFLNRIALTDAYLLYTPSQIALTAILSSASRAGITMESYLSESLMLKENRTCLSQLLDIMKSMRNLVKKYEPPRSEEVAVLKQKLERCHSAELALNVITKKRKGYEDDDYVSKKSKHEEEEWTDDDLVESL
Sequence (P51948 whole entry partner): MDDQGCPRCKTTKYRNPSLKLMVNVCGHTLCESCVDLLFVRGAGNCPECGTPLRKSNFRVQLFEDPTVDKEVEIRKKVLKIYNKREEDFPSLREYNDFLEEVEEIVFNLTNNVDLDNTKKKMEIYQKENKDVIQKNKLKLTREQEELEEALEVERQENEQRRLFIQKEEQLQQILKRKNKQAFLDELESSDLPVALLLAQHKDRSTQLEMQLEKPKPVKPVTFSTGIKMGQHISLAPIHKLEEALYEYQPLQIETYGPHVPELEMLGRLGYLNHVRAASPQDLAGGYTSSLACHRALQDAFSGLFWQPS
pIC50: −log10 of the molar value.
quantity-measured: pIC50

>>> result("CN(C)C/C=C/C(=O)Nc1ccc(C(=O)N[C@@H]2CCC[C@H](Nc3ncc(Cl)c(-c4c[nH]c5ccccc45)n3)C2)cc1")
"6.00 to 7.00"
>>> result("C=C(C)C(=O)Nc1ccc(C(=O)N[C@H]2CCC[C@@H](Nc3ncc(Cl)c(-c4c[nH]c5ccccc45)n3)C2)cc1")
"6.00 to 7.00"
>>> result("C=CC(=O)Nc1ccc(C(=O)N[C@H]2CCC[C@@H](Nc3ncc(F)c(-c4c[nH]c5ccccc45)n3)C2)cc1")
"6.00 to 7.00"
